# TARGET_SYSTEM: GlcNAc(b1-4)[GlcNAc(b1-6)]GalNAc
# ASSAY_SUMMARY: glycan array binding signal (z-score within array); higher = stronger binding
# RUN_PARAMETERS: glycan notation: IUPAC condensed, linker removed
The entries come from a sample that favours the strongest signals as a whole.
PARAMETER_MEASURED: glycan array binding signal (z-score)

>>> recorded_value("FBG2 (Homo sapiens), Q9NRD1 (protein) MDAPHSKAALDSINELPENILLELFTHVPARQLLLNCRLVCSLWRDLIDLMTLWKRKCLREGFITKDWDQPVADWKIFYFLRSLHRNLLRNPCAEEDMFAWQIDFNGGDRWKVESLPGAHGTDFPDPKVKKYFVTSYEMCLKSQLVDLVAEGYWEELLDTFRPDIVVKDWFAARADCGCTYQLKVQLASADYFVLASFEPPPVTIQQWNNATWTEVSYTFSDYPRGVRYILFQHGGRDTQYWAGWYGPRVTNSSIVVSPKMTRNQASSEAQPGQKHGQEEAAQSPYRAVVQIFPPPVTIQQWNNATWTEVSYTFSDYPRGVRYILFQHGGRDTQYWAGWYGPRVTNSSIVVSPKMTRNQASSEAQPGQKHGQEEAAQSPYRAVVQI")
-0.787

Origin of the recorded values: the supplement of paper PMC8728848
